Quick list: TGI per entry.
Test system: PC-3 prostate
Assay: NCI tumour cell line growth inhibition, 48 h
PROPERTY: TGI

| MOLECULE | REPORTED_MEASUREMENT |
| --- | --- |
| CN1C(=O)CC2(C)c3cc(O)ccc3N(C)C12 (stereo not given) | > 100 µM |
| CC(=O)NC(Cc1cnc[nH]1)C(=O)N1CCCC1C(N)=O (stereo not given) | > 100 µM |
| CC1=CCCC(C)(O)C2CC(CCC3(C)OC3CC1)C(C)C(=O)O2 (stereo not given) | > 100 µM |
| COc1ccc(C(=O)n2nc(/C=C/c3ccc(O)c(OC)c3)cc2/C=C/c2ccc(O)c(OC)c2)cc1 | 3.78 µM |
| CC(C)=CCC/C(C)=C\CC/C(C)=C/CO | > 100 µM |
| O=C1/C(=C/c2cccc([N+](=O)[O-])c2)N=C(c2ccccc2)N1c1nc2c(Cl)cc(Cl)cc2s1 | 64.4 µM |
| COc1cc(C2C3=C(COC3=O)Oc3cc4c(cc32)OCO4)cc(OC)c1OC (stereo not given) | 0.313 µM |
| CC(C)=CCC/C(C)=C/CC/C(C)=C/CCN(C)CCO | 18.2 µM |
| CC(NNC(=S)N1CCCCCC1)c1cccnn1 (stereo not given) | > 100 µM |
| COc1ccc(N2C(=O)CC(=O)N(C(=O)CCCCCCCCC(=O)N3C(=O)CC(=O)N(c4ccc(OC)cc4)C3=S)C2=S)cc1 | > 100 µM |

----------
Test system: SNB-19 CNS
Experiment: NCI tumour cell line growth inhibition, 48 h
Each item that follows carries a reported TGI.

| COMPOUND | TEST_SYSTEM | TGI |
| --- | --- | --- |
| N#Cc1ccc(Oc2nc3ccccc3nc2C(=O)O)cc1 | SNB-19 CNS | > 100 µM |
| Cc1cc(C(=O)NC(C)(C)C)cc(C#Cc2ccc3c4c(oc3c2)C(C)(C)c2cc(NS(C)(=O)=O)ccc2C4=O)n1 | SNB-19 CNS | > 100 µM |
| CC1=C(C(=O)Nc2cc(F)c(F)cc2F)C(c2ccc3c(c2)OCO3)C(C(=O)Nc2cc(F)c(F)cc2F)=C(C)N1 | SNB-19 CNS | > 100 µM |
| CCOC(=O)c1sc2nc(SC)nc(N3CCCCC3)c2c1N | SNB-19 CNS | > 100 µM |
| COc1ccc(C(=O)n2nc(/C=C/c3ccc(O)c(OC)c3)cc2/C=C/c2ccc(O)c(OC)c2)cc1 | SNB-19 CNS | 18.8 µM |
| Cc1cn(C2CC(n3cncn3)C(C(C)O)O2)c(=O)[nH]c1=O (centres undefined) | SNB-19 CNS | > 100 µM |
| CCOC(=O)C(Cc1ccc([N+](=O)[O-])cc1)NC(=O)CC1c2ccccc2-c2ccccc21 (centres undefined) | SNB-19 CNS | > 100 µM |
| Cc1ccc(S(=O)(=O)NC2C(=O)c3ccccc3C(=O)C2n2ccnc2)cc1 (centres undefined) | SNB-19 CNS | > 100 µM |
| N/C(=N/N=C/c1cc(Br)cc(Br)c1O)NO | SNB-19 CNS | > 80.7 µM |

----------
Entries and their TGI
System: SF-295 CNS
Assay: NCI tumour cell line growth inhibition, 48 h

| MOLECULE | TGI |
| --- | --- |
| NCCCCCCn1c2c(c3ccccc3c1=O)C(=O)c1ccccc1-2 | 5.56 µM |
| Cc1ccccc1OCC(COC(=O)Nc1ccccc1)OC(=O)Nc1ccccc1 (stereo not given) | > 100 µM |
| CC1=NN(c2nc(N)nc(COCc3nc(N)nc(N4N=C(C)CC4(C)C)n3)n2)C(C)(C)C1 | > 100 µM |
| COc1ccc2nc3cccc([N+](=O)[O-])c3c(NCCN(C)C)c2c1 | 1 µM |
| O=C(CSc1nccc(=O)[nH]1)c1ccccc1 | > 100 µM |
| COc1ccc(N2C(=O)CC(=O)N(C(=O)CCCCCCCCC(=O)N3C(=O)CC(=O)N(c4ccc(OC)cc4)C3=S)C2=S)cc1 | > 100 µM |
| CCCCCCCCCCCCCCCCCCNc1ccn(C2OC(CO)C(OP(=O)(O)OCC(COP(=O)(O)OCC3OC(n4cc(F)c(NCCCCCCCCCCCCCCCCCC)nc4=O)CC3O)OC(=O)CCCCCCCCCCCCCCC)C2O)c(=O)n1 (stereo not given) | > 100 µM |
| Cc1ccc2nc(-n3c(/C=C/c4ccccc4O)nc4ccccc4c3=O)sc2c1 | > 100 µM |
| O=C1OC(c2cccc(C(F)(F)F)c2)c2ccc3ccccc3c21 (stereo not given) | > 100 µM |
| CC(=O)CC(O)(C(F)(F)Cl)C(F)(F)Cl | > 10 µM |
| O=C(COc1cccc(/C=C2/Oc3ccccc3C2=O)c1)Nc1nccs1 | > 100 µM |
| O=C(O[C@H]1CN[C@H](C#Cc2cc3ncnc(Nc4ccc5c(cnn5Cc5ccccc5)c4)c3s2)C1)N1CCOCC1 | > 25 µM |
| C/C=C(\C)C(=O)O[C@H]1C=CC(=O)O[C@H]1CC[C@H](O)[C@H](C)O | 26.5 µM |
| CN1C(=O)/C(=C/c2c(Cl)[nH]c3ccccc23)c2ccccc21 | 85.5 µM |
| O=C1C(=O)c2c(O)ccc(O)c2C(O)=C1Cl | > 100 µM |
| C[C@]12C=CC(=O)C=C1[C@@H](F)C[C@H]1[C@@H]3CC[C@](O)(C(=O)CO)[C@@]3(C)C[C@H](O)[C@@]12F | > 100 µM |
| CCCCCC(/C=C/C1CCC(=O)C1)OCOCCOC (stereo not given) | > 100 µM |
| S=c1[nH]n2c(Cc3ccccc3)nnc2s1 | > 100 µM |
| Cc1ccc(-c2cc3c(NC(=O)C4CC4)ncnc3o2)cc1 | > 25 µM |
| S=C(NC/C(Br)=C/Br)Nc1cccc2ccccc12 | > 100 µM |

----------
Tested on: RXF 393 renal
Experiment: NCI tumour cell line growth inhibition, 48 h
// reported log10 of TGI per item
PROPERTY: log10 of TGI (log10 of the value in µM)

| COMPOUND | REPORTED_MEASUREMENT |
| --- | --- |
| NC(=O)NC(=O)c1cccc(NC(=O)CI)c1 | 0.33 |
| CC1=C(C(=O)Nc2cc(F)c(F)cc2F)C(c2ccc3c(c2)OCO3)C(C(=O)Nc2cc(F)c(F)cc2F)=C(C)N1 | 1.55 |
| COc1cc2c(/C=C3/C(=O)Nc4ccc(O)cc43)c(Cl)[nH]c2cc1C | 1.48 |
| CCCOP1(=O)C=CC(Cl)=C(C)C1 (stereo not given) | 1.52 |
| O=CC1C(Cl)=Nc2nc3ccccc3n2C1c1ccc([N+](=O)[O-])cc1 (stereo not given) | 0.85 |
| Cc1cc2cc3c(Cl)c(CCCl)c(C)nc3cc2c(Cl)c1CCCl | 1.24 |
| CCCCN(C(=O)c1ccccc1)C1CCC(=O)c2[nH]c3ccccc3c21 (stereo not given) | 1.85 |
| O=c1c2c([nH]c3cc4c(cc13)OCO4)-c1ccccc1C2 | 1.53 |
| N/C(=N/N=C/c1cc(Br)cc(Br)c1O)NO | 1.73 |
| Cc1ccccc1OCC(COC(=O)Nc1ccccc1)OC(=O)Nc1ccccc1 (stereo not given) | 1.64 |

----------
Test system: HOP-62 NSCLC
Assay: NCI tumour cell line growth inhibition, 48 h

| COMPOUND | TGI |
| --- | --- |
| CCN(CC)CCNC(=O)c1cn2ncnc(Oc3ccc(NC(=O)Nc4ccc(Cl)c(C(F)(F)F)c4)cc3)c2c1C | 3.56 µM |
| N/N=C(/Cc1ccccc1)NNC(N)=S | > 100 µM |
| Clc1ccc(N2CCN(CCCN3CCN(c4cccc(Cl)c4)CC3)CC2)cc1 | 18.1 µM |
| COc1cc(-c2cc(/C=C/C(=O)c3ccc(N)cc3)[nH]n2)cc(OC)c1OC | 3.92 µM |
| CC(C)OP(=O)(OC(C)C)C([CH2][Sn]([CH3])([CH3])[Cl])P(=O)(OC(C)C)OC(C)C | 40.4 µM |
| CCC1=C(C)c2cc3[n-]c(cc4nc(c(C=O)c5[n-]c(cc1n2)c(C)c5CC)C(C)=C4CC)c(C)c3CC.[Ni+2] | > 100 µM |
| CCCCN(C(=O)c1ccccc1)C1CCC(=O)c2[nH]c3ccccc3c21 (stereo not drawn) | > 100 µM |
| CCN(CC)CCNc1ccc2ncn3c4ccccc4c(=O)c1c23 | 21.6 µM |
| O=C(CSc1nccc(=O)[nH]1)c1ccccc1 | > 100 µM |
| O=C(c1ccc(Cl)c(Cl)c1)N(Cc1cccnc1)C(=S)N(Cc1cccnc1)C(=O)c1ccc(Cl)c(Cl)c1 | 83.6 µM |
| Cc1c(C(=O)O)nc(/C=C/C(=O)O)[nH]c1=O | > 100 µM |
| O=C(O)CSc1ccc2[nH]c3ccccc3c(=O)c2c1 | > 100 µM |
| CC(C)(OCc1ccccc1)c1ccccc1P(c1ccccc1)c1ccccc1 | > 100 µM |
| COc1ccc2nc(C)cc(NCCCCCCCCCNc3cc(C)nc4ccc(OC)cc34)c2c1 | 10.6 µM |
| CCOC(=O)c1sc2nc(SC)nc(N3CCCCC3)c2c1N | > 100 µM |
| COC(=O)c1nn(-c2ccccc2)c(=O)cc1N=[N+]=[N-] | > 100 µM |
| S=c1[nH]n2c(Cc3ccccc3)nnc2s1 | > 100 µM |
| S=C(NC/C(Br)=C/Br)Nc1cccc2ccccc12 | 94 µM |
| COS(=O)(=O)OCCC(NC(=O)OCc1ccccc1)C(=O)OCc1ccccc1 (stereo not drawn) | > 100 µM |
| O=CC1C(Cl)=Nc2nc3ccccc3n2C1c1ccc([N+](=O)[O-])cc1 (stereo not drawn) | > 100 µM |
| COc1ccc(N2C(=O)C3c4[nH]c5ccc(C)cc5c4C4CCC(c5ccccc5)CC4C3C2=O)cc1 (stereo not drawn) | 26.8 µM |
| Cc1nc2c([nH]c1C)c(O)cc1c3c(nc12)C(=O)CCC3 | > 100 µM |
| CC(NC(=O)C(Cc1ccc(OC(=O)c2ccccc2)cc1)NC(=O)OC(C)(C)C)C(=O)NCC(=O)NC(Cc1ccccc1)NC(=O)OCc1ccccc1 (stereo not drawn) | > 100 µM |

Where these numbers come from: PubChem BioAssay (NCI)
